B1: TPR 5TU (parent)
chain: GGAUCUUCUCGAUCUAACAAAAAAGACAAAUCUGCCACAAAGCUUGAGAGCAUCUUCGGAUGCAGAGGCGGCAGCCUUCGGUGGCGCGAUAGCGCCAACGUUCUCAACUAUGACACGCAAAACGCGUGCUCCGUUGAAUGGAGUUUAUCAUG

- Variants of: B1
- assayInfo: polymerase ribozyme fitness, log enrichment relative to wild type (log ratio); higher = more active; in vitro selection for triplet polymerase activity
Variants at the floor of the assay were thinned out.
In this section we review reported polymerase ribozyme fitness (log ratio) values for a set of variants.

// below: answered variants
{"change": "C85U C93G A150G", "polymerase ribozyme fitness (log ratio)": "≤ -4.2"}
{"change": "U55A G100A", "polymerase ribozyme fitness (log ratio)": "≤ -4.2"}
{"change": "A20U G46C U56A C96U U135C A147G", "polymerase ribozyme fitness (log ratio)": "≤ -4.2"}

Prompt: Output polymerase ribozyme fitness (log ratio) of C8A A28U C79U C93U C105U
Completion: ≤ -4.2

Prompt: Specify measured polymerase ribozyme fitness (log ratio) for A17U C32A A37U A41U .
Completion: ≤ -4.2
